Overview of reported kon across a group of binders:
- test-target: T1, rhesus serum albumin (rhesus, UniProt Q28522 17-600)
- T1 construct: also called RhSA; Rh-SA
- T1 sequence (Q28522 17-600 limits assumed): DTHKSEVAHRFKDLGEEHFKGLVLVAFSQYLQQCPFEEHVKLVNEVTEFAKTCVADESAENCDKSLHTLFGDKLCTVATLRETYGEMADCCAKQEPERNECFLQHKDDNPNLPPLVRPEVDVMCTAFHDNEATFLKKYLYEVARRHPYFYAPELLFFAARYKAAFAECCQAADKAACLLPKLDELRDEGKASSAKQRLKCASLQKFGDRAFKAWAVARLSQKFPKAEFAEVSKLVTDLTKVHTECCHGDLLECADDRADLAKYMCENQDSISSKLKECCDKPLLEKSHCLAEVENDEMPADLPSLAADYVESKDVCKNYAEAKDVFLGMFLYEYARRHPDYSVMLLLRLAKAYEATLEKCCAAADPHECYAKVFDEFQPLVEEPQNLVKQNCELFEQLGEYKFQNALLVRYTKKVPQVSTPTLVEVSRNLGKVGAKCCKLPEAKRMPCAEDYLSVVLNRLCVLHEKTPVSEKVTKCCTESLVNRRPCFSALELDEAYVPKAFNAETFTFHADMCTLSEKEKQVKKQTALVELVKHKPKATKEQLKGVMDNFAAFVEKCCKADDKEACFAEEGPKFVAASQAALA
- assay-method-text: SPR, albumin immobilized;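 also: biacore SPR with human, rhesus or mouse serum albumin amine-coupled to the chip (about 1200 RU), 3 min association, 6-10 min dissociation, reference-subtracted traces fitted with a 1:1 model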
Express your answer in M⁻¹ s⁻¹, writing the number without its unit.

- binder: "PCSK9-PKE2 tandem Adnectin w/ his tag 4472_C06 (designed binder, also called ATI-1574; ADX_4472_C06) MGVSDVPRDLEVVAATPTSLLISWDAPAEGYGYYRITYGETGGNSPVQEFTVPVSKGTATISGLKPGVDYTITVYAVEFDFPGAGYYHRPISINYRTEPSTPPTPSPSTPPTPSPSGVSDVPRDLEVVAATPTSLLISWDAPAVTVRYYRITYGREVQKYSDLGPLYIYQEFTVPGSKSTATISGLKPGVDYTITVYAVTGSGESPASSKPISINYRTEHHHHHH"
  measurement-label: "kon"
  measured-result: 4380
- binder: "PCSK9-PKE2 tandem 4472_E06 (designed binder, The real molecule is ONE polypeptide: PCSK9 domain, undisclosed linker I (a code letter), PKE2 domain. It is given here as two chains because the linker letters are unknown., also called 4427_E06; not shown: The inter-domain linker) PCSK9 domain: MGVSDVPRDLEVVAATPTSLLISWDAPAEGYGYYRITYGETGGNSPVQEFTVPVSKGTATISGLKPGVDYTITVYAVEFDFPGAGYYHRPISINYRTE PKE2 domain: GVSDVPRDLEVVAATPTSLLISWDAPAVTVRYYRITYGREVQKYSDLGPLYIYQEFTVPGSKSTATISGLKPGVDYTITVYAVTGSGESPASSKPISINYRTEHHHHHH"
  measurement-label: "kon"
  measured-result: 5770
- binder: "PCSK9-PKE2 tandem 4472_F08 (designed binder, The real molecule is ONE polypeptide: PCSK9 domain, undisclosed linker F, PKE2 domain. It is given here as two chains because the linker letters are unknown., not shown: The inter-domain linker) PCSK9 domain: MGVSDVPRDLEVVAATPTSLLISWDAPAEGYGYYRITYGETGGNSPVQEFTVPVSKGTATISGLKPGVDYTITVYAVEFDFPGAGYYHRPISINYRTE PKE2 domain: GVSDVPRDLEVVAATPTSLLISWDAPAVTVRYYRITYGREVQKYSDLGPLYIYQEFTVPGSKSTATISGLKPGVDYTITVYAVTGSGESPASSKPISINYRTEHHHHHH"
  measurement-label: "kon"
  measured-result: 5340

# context switch: different binder, same kon
Prompt line: Recorded kon of PKE2 Adnectin 2629_E06 (designed binder, 10Fn3 domain with modified CD loop; the entry includes the His6 tail; also called ADX_2629_E06) MGVSDVPRDLEVVAATPTSLLISWDAPAVTVRYYRITYGREVQKYSDLGPLYIYQEFTVPGSKSTATISGLKPGVDYTITVYAVTGSGESPASSKPISINYRTEIDKPSQHHHHHH , please.
Response line: 19500

Data provenance is patent US20200048328A1.
